# Tested on: A549 NSCLC
# run description: NCI tumour cell line growth inhibition, 48 h
readout kind: TGI

A selection of reference data follows.
INSERT INTO assay_data (compound, tested_on, reported_result) VALUES
  ('Cc1ccc2c(=O)cc(-c3cc4ccccc4s3)[nH]c2n1', 'A549 NSCLC', '> 100 µM'),
  ('CCCCCCCCCCCCCCCCOP(=O)(O)OP(=O)(O)OCC1OC(n2cnc3c(N)ncnc32)C(O)C1O (stereo unspecified)', 'A549 NSCLC', '> 100 µM'),
  ('Nc1nc2ccccc2c2[nH]c3ccccc3c12', 'A549 NSCLC', '2.37 µM'),
  ('COCn1c(=O)n(C)c(=O)c2c1nc1c(c(=O)n(C)c(=O)n1COC)[n+]2[O-]', 'A549 NSCLC', '91.2 µM'),
  ('NC(N)=NS(=O)(=O)c1ccc(NC(=O)c2cccn3c(=O)c4ccccc4nc23)cc1', 'A549 NSCLC', '> 100 µM');

Report measured TGI on A549 NSCLC; entry: Nc1ncnc2c1ncn2C1OC(CO)CC1O (stereo unspecified) > 100 µM

GET TGI | system: A549 NSCLC | item: "COc1cccc(-c2cc(=O)c3cc(C)c(C)c(C(=O)O)c3o2)c1" > 100 µM

Give A549 NSCLC TGI for the following compound: "Cc1ccc(N/N=C/C2=CC(C)(C)C(C#N)(C#N)C(O)=C2C#N)cc1" > 100 µM

# return TGI for CC(C)COC(=O)N1N=NC2C3CC(=O)C(O3)C21 (stereo unspecified) , test system: A549 NSCLC > 100 µM

Give TGI for "c1cc2c(cc1NC1=NCCO1)CCCC2" tested on A549 NSCLC. 39.9 µM

Provide TGI, tested on A549 NSCLC, for O=C1CC2(CCN(CC3COc4ccccc4O3)CC2)C(=O)N1N1CCCCCC1 (stereo unspecified) . > 100 µM

State measured TGI of the compound CCCCCCCCCCCCCCCCCCNc1ccn(C2OC(COP(=O)(O)OCC(COP(=O)(O)OCC3OC(n4cc(C)c(=O)[nH]c4=O)CC3N=[N+]=[N-])OCCCCCCCCCCCCCCCCCC)C(O)C2O)c(=O)n1 (stereo unspecified) with A549 NSCLC. > 100 µM

Fill in: TGI on A549 NSCLC, entry O=C1CSC(c2c[nH]c3ccccc23)N1c1cccc([N+](=O)[O-])c1 (stereo unspecified) > 100 µM

Provide A549 NSCLC TGI reading for "Oc1ccccc1/C=N/Nc1nc2ccccc2s1" . > 100 µM

Report value only: TGI, A549 NSCLC, "O=C(/C=C/c1ccccc1)Nc1ncc(Cc2ccccc2)s1" > 55.1 µM

----------
# Tested on: KM12 colon
# run description: NCI tumour cell line growth inhibition, 48 h; in the data active = GI50 below about 0.43 µM; inactive = the rest
The categories you may choose from are active, inactive

INSERT INTO assay_data (compound, tested_on, class_assignment) VALUES
  ('O=c1[nH]ccc2nc(N3CCC(O)CC3)nc(Nc3ccc(N4CCOCC4)cc3)c12', 'KM12 colon', 'active'),
  ('COc1cc(-c2nn(-c3ccc(NC(=O)Nc4ccc(Cl)c(C(F)(F)F)c4)cc3)cc2-c2ccncc2)ccc1Cl', 'KM12 colon', 'inactive'),
  ('COc1ccc(Nc2[nH]n(C3=Nc4ccccc4Sc4ccccc43)c(=O)c2C#N)cc1', 'KM12 colon', 'inactive'),
  ('CS(=O)(=O)OCCCCOS(C)(=O)=O', 'KM12 colon', 'inactive'),
  ('C=CC1CC12C(=O)C1OC2(C)C2C(=O)c3c(O)cccc3C(=O)C12 (centres undefined)', 'KM12 colon', 'inactive'),
  ('CCN(CC)c1ccc(CNc2cc(C)nc3ccc(OC)cc23)cc1', 'KM12 colon', 'inactive'),
  ('COc1ccc(C(=O)OC2C(OC3C(O)COC(O[C@H]4C[C@H]5[C@@H]6CC=C7C[C@@H](O)CC[C@]7(C)[C@H]6CC[C@]5(C)[C@H]4[C@H](C)C(=O)CCC(C)C)C3OC(=O)C(C)C)OCC(O)C2O)cc1 (some centres undefined)', 'KM12 colon', 'active'),
  ('COc1ccc(-c2cnc(SCC(=O)c3c(C)n(C)n(-c4ccccc4)c3=O)n2-c2ccc(OC)cc2)cc1', 'KM12 colon', 'inactive');

Would you mind telling me which call this test gave "O=C1C2=C(C(=O)c3c(O)ccc(O)c31)N(c1cccnc1)Cc1ccccc1O2" ? inactive

Please indicate how the test categorized "COc1ccccc1CN=C1NC(=O)/C(=C/c2ccc3ncccc3c2)S1" . inactive

// param item: "CS(=O)(=O)c1nccc(-c2c(-c3cccc(OCc4ccccc4)c3)nc3sccn23)n1" ; yields the recorded call inactive

Returns: the outcome recorded for "Nc1nc2ccccc2c2[nH]c3ccccc3c12" in this assay. inactive

Hi, do you know how "CC(C)C[C@H](NC(=O)[C@H](Cc1ccccc1)NC(=O)c1cnccn1)B(O)O" came out in this test? active

Recorded test outcome, item "CC/C=C\C[C@H](O)C/C=C1/C(=O)C=C[C@@H]1C/C=C\CCCC(=O)OCCS(=O)(=O)c1ccccc1" inactive

----------
Measured TGI accompanies every entry in the list below.
# Tested on: OVCAR-4 ovarian
# run description: NCI tumour cell line growth inhibition, 48 h
Record the value in µM, omitting the unit from your answer.

For orientation, consider the following solved cases.
INSERT INTO measurements (compound, tested_on, unit_abbrev, reported_result) VALUES
  ('O=S(=O)(Nc1nc2ccccc2nc1Nc1cccc2ccccc12)c1ccccc1', 'OVCAR-4 ovarian', 'µM', 5.99),
  ('COc1ccc2c(c1)O/C(=C\c1ccc([N+](=O)[O-])o1)C2=O', 'OVCAR-4 ovarian', 'µM', 6.5),
  ('COC(=O)c1c(O)ccc2c1c1cc3ccccc3c(O)c1n2Cc1ccccc1Cl', 'OVCAR-4 ovarian', 'µM', 51.1);

Using known records, supply TGI for "C=C(c1ccccc1)[C@@]1(O)CCCC[C@H]1NC(c1ccccc1)c1ccccc1" 34.5

----------
# Tested on: MDA-MB-231 breast
# run description: NCI tumour cell line growth inhibition, 48 h; in the data active = GI50 below about 0.43 µM; inactive = the rest
Please state which outcome applies, choosing from class 1 = active, class 0 = inactive

INSERT INTO results (compound, class_assignment) VALUES
  ('O=C(NCCN1CCOCC1)Nc1nc2ccc(Sc3nnc4ccc(-c5ccc(F)cc5)nn34)cc2s1', 'class 0'),
  ('CCN(CC)c1ccc(CNc2cc(C)nc3ccc(OC)cc23)cc1', 'class 0'),
  ('C/C(=N\NC(=O)c1cccc(S(=O)(=O)N2CCN(C)CC2)c1)c1cc(Cl)ccc1O', 'class 0'),
  ('O=C(/C=C/c1ccccc1)Nc1ncc(Cc2ccccc2)s1', 'class 1'),
  ('C[C@@]1([C@H](OC(=O)c2cccc3ccccc23)C(N)=O)CO1', 'class 0'),
  ('COc1ccc(C2CC(c3ccc4ccccc4c3)=NN2/C=C2\SC(=S)N(NC(=O)Cc3ccccc3Nc3c(Cl)cccc3Cl)C2=O)cc1 (centres undefined)', 'class 0'),
  ('CC[C@]12C=CCN3CC[C@@]4(c5ccc(OC)cc5N(C)[C@H]4[C@@](O)(C(=O)OC)[C@@H]1OC(=O)CCCC[P+](c1ccccc1)(c1ccccc1)c1ccccc1)[C@@H]32', 'class 1'),
  ('COc1ccc2nc(-c3ccc(Cl)cc3)cc(-c3nnc(SCC(=O)Nc4ccc(/C(C)=N\O)cc4)o3)c2c1', 'class 0');

Now look at this one.
Any idea what this test logged for "Cc1cc(N2CCCCC2)nc(NCc2cc(Nc3ccnc4cc(Cl)ccc34)ccc2F)n1" ? class 0

----------
Each item that follows carries a reported TGI.
# Tested on: NCI-H460 lung
# run description: NCI tumour cell line growth inhibition, 48 h

Fill in TGI for O=C1CC(c2ccccc2)NCCCCN2CC(CN1)C(C(O)c1ccccc1)C2=O (stereo not given) tested with NCI-H460 lung. > 100 µM

Report TGI on NCI-H460 lung for this entry: "Clc1ccc(/C=c2\nc(-c3ccccc3)n3c2nc2ccccc23)cc1" > 100 µM

Give TGI; test system NCI-H460 lung; molecule "CN1C(=O)C(C)(C)NS1(=O)=O" > 100 µM

Fetch value of TGI on NCI-H460 lung for "Nc1nc(=O)c2[nH]cnc2n1O" . > 100 µM

Output reported TGI of the molecule "Cc1nnc(N2C(=O)C(=Cc3ccc(Cl)cc3)N=C2c2ccc(Cl)cc2)nc1/C=C\c1ccc(N(C)C)cc1" on NCI-H460 lung. > 100 µM

----------
# Test system: SK-MEL-2 melanoma
# run description: NCI tumour cell line growth inhibition, 48 h
Listing of entries alongside the reported TGI.

Some molecules with known TGI results, for comparison:
INSERT INTO assay_data (molecule, readout_kind, reported_result) VALUES
  ('CC1(C)CC(=O)c2c([nH]c(=S)c(C#N)c2-c2ccc(Br)cc2)C1', 'TGI', '76.6 µM'),
  ('C=C(C)[C@@H]1CC[C@]2(C)[C@H](CC=C3[C@@H]4CC(C)(C)CC[C@]4(CO)CC[C@]32C)[C@@]1(C)CCCN', 'TGI', '3.58 µM'),
  ('COC(=O)c1c(O)ccc2c1c1cc3ccccc3c(O)c1n2Cc1ccccc1Cl', 'TGI', '40.7 µM'),
  ('COc1ccc2c(c1)OCC1=C2Oc2ccccc2C1', 'TGI', '77.5 µM'),
  ('CSC1=C(C(=O)N(COCC[Si](C)(C)C)c2ccccc2Br)CCC(C(C)(C)C)C1 (configuration not stated)', 'TGI', '31.7 µM');

Respond only with TGI recorded for CCCCCCCCCCCCCCCCC(=O)NCC(=O)NCC(=O)NC(Cc1ccccc1)C(=O)Oc1ccc([N+](=O)[O-])cc1 (configuration not stated) > 100 µM

Answer with reported TGI of "O=C(/C=C/c1ccc[nH]1)c1ccccc1" > 100 µM
